- assay overview: Maximal plasma concentration in dogs after 0.1 mg/kg oral dose, n=3
- Format: ADME, organism-based, Canis lupus familiaris
- Parameters: dose 0.1 mg/kg, route oral
- details: dog
measure name: Cmax (ng/mL)
Answer with a number only, understood to be in ng/mL.

Which Cmax value is on record for `O=C(O)c1cccc(C[C@@H]2CCCC=C2c2nc(-c3ccccc3)c(-c3ccccc3)o2)c1` ?
57.3

====

- assay overview: Clearance in rat after iv administration (n=2-3)
- Format: ADME, organism-based
- details: in vivo
measure name: Cl (mL/min/kg)
Answer in mL/min/kg, number only, no unit symbol.

Tell me the measured Cl of `O=C([O-])COc1cccc(C[C@@H]2CCCC=C2c2nc(-c3ccccc3)c(-c3ccccc3)o2)c1.[Na+]` , please.
17.7

====

The next entries give measured pKi for Prostaglandin F2-alpha receptor (Homo sapiens, UniProt P43088).
pKi: −log10 of the molar value.

Given the compound `O=C(O)CCCCCNC(=O)[C@H](CCCNC(=O)OCc1ccccc1)NC(=O)c1cc2ccccc2o1` , what is its reported pKi?
< 5.00

# pKi lookup, item `O=C(O)c1cccc(C[C@@H]2CCCC=C2c2nc(-c3ccccc3)c(-c3ccccc3)o2)c1`
< 5.52

Field request: pKi | item: `O=C(NS(=O)(=O)Cc1ccccc1)c1cccc(C[C@@H]2CCCC=C2c2nc(-c3ccccc3)c(-c3ccccc3)o2)c1`
< 5.52

GET /values?readout=pKi&item= `O=C(NOCc1ccccc1)c1cccc(C[C@@H]2CCCC=C2c2nc(-c3ccccc3)c(-c3ccccc3)o2)c1`
< 6.00

====

Below are compounds with their Ki as measured on Prostaglandin E2 receptor EP4 subtype (Homo sapiens, UniProt P35408).
Sequence (P35408 whole entry): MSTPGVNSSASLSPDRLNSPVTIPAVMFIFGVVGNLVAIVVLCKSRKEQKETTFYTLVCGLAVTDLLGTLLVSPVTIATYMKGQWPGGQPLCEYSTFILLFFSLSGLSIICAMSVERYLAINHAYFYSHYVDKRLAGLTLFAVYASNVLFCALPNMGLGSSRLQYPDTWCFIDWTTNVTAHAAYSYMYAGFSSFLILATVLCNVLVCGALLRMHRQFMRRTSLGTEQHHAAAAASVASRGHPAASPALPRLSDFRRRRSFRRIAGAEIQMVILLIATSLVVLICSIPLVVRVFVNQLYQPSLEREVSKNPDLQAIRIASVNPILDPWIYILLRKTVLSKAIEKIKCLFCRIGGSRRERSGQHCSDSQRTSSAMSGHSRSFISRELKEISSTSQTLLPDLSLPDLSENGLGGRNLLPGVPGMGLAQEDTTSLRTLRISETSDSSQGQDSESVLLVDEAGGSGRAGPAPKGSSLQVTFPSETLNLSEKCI
Please state the figure in nM; there is no need to write the unit.

CN(Cc1ccccc1)C(=O)[C@H](Cc1ccccc1)NC(=O)[C@H](CCCNC(=O)OCc1ccccc1)NC(=O)c1cc2ccccc2[nH]1 80
O=C(NS(=O)(=O)Cc1ccccc1)c1cccc(C[C@@H]2CCCC=C2c2nc(-c3ccccc3)c(-c3ccccc3)o2)c1 0.3
O=C(NCCC[C@H](NC(=O)c1cc2ccccc2[nH]1)C(=O)N[C@@H](Cc1ccccc1)C(=O)O)OCc1ccccc1 43

GET /values?readout=Ki&item= `O=C(O)Cc1cccc(C[C@@H]2CCCC=C2c2nc(-c3ccccc3)c(-c3ccccc3)o2)c1`
50

====

Assay system Prostaglandin E2 receptor EP3 subtype (Homo sapiens); read-out recorded as Ki.

O=C(O)CCCCCNC(=O)[C@H](CCCNC(=O)OCc1ccccc1)NC(=O)c1cc2ccccc2o1 > 10 µM

Below: the item to evaluate.
Form field - read-out: Ki; system: Prostaglandin E2 receptor EP3 subtype (Homo sapiens); submitted item: `O=C(NOCc1ccccc1)c1cccc(C[C@@H]2CCCC=C2c2nc(-c3ccccc3)c(-c3ccccc3)o2)c1`
Sequence (P43115 whole entry): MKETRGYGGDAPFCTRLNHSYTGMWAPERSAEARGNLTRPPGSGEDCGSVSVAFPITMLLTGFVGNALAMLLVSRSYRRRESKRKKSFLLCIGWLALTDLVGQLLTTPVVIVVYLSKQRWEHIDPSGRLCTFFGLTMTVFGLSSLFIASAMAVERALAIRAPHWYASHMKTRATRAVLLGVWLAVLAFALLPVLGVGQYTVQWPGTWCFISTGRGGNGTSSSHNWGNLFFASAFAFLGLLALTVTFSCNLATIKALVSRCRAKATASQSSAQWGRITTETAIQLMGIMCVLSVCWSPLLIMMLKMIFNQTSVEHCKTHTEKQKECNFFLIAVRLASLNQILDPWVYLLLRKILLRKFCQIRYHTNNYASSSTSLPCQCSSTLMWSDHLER
> 3 µM

====

- assay overview: Bioavailability in rat at 0.32 mg/kg after po administration (n=3)
- Assay type: ADME, organism-based
- details: in vivo
measure name: bioavailability (%)
Your answer is read as %, so omit the unit and give the number.

Which bioavailability value belongs to `O=C([O-])COc1cccc(C[C@@H]2CCCC=C2c2nc(-c3ccccc3)c(-c3ccccc3)o2)c1.[Na+]` ?
50

====

- tested on: Prostaglandin E2 receptor EP4 subtype (Rattus norvegicus, UniProt P43114)
- Sequence (P43114 whole entry): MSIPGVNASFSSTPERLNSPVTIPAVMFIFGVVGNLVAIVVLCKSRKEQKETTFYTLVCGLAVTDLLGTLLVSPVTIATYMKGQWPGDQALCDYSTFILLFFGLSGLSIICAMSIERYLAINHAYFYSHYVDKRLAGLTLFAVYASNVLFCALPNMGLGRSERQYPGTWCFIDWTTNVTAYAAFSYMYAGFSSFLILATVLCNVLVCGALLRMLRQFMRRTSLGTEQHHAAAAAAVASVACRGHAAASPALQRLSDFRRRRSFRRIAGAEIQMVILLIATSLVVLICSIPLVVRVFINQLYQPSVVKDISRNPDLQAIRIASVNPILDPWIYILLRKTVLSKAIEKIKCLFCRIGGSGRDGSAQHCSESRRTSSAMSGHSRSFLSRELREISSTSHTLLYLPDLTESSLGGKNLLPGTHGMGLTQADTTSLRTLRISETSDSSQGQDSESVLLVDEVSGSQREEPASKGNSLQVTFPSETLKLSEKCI
measure name: Ki (nM)
Write it as a number; the unit nM goes unstated.

Value wanted: Ki (Prostaglandin E2 receptor EP4 subtype (Rattus norvegicus, UniProt P43114)) of entry `O=C(O)CCCCCNC(=O)[C@H](CCCNC(=O)OCc1ccccc1)NC(=O)c1cc2ccccc2o1`
5.1

The measured values listed here are drawn from ChEMBL document CHEMBL1143620.
